The compounds listed here are annotated with their pKi.
Molecular target: PCSK9 (Homo sapiens, UniProt Q8NBP7)
Construct: biotin (biotinylated); purchased
Sequence (Q8NBP7 153-692): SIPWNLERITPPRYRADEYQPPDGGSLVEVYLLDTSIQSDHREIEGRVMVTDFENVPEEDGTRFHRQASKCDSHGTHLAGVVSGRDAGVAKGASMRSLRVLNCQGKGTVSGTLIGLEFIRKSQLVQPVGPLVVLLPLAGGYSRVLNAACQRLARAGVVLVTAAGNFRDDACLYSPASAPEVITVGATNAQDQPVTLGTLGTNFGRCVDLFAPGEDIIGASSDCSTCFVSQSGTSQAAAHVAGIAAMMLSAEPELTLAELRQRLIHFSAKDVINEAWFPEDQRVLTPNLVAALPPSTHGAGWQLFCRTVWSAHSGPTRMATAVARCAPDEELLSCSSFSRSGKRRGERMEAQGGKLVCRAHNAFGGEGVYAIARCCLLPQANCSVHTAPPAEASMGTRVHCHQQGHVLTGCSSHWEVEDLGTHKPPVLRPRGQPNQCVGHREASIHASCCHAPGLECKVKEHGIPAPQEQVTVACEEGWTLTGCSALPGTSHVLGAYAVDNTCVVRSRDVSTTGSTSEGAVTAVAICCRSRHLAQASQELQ
Assay: PCSK9 Alexa FRET Plus TR-FRET assay
Assay type: binding
Settings: Ki calculated from IC50 and KD of AF cyclic peptide Reagent B; 0.5 nM PCSK9, 960 nM AF cyclic peptide; read-out: Alexa FRET Plus TR-FRET
pKi: −log10 of the molar value.
READOUT_LABEL: pKi

INSERT INTO measurements (line_notation, experimental_system, meas_value) VALUES
  ('COc1ccc(C[C@@H]2NC(=O)[C@H]([C@@H](C)O)NC(=O)[C@@H]3[C@@H]4CCN3C(=O)[C@@H]3Cc5cn(c6ccc(F)cc56)CCCCCCN(Cc5ccc(cc5)CCNC(=O)[C@]5(C)CCCN5C2=O)C(=O)CCC(=O)N[C@@H](CNC(=O)COCCOCC[N+](C)(C)CCNC(=O)COCCOCCNC(=O)COCCOCCNC(=O)CC[C@H](NC(=O)CCCCCCCCCCCCCCCCC(=O)O)C(=O)O)C(=O)N[C@H](CNC(=O)CCOCCOCC[N+](C)(C)C)C(=O)N[C@@H](Cc2cccc(c2)CNC(=O)CO4)C(=O)N3)cc1', 'PCSK9 (Homo sapiens, UniProt Q8NBP7)', '> 11.22'),
  ('COc1ccc(C[C@@H]2NC(=O)[C@H]([C@@H](C)O)NC(=O)[C@@H]3[C@@H]4CCN3C(=O)[C@@H]3Cc5cn(c6ccc(F)cc56)CCCCCCN(Cc5ccc(cc5)CCNC(=O)[C@]5(C)CCCN5C2=O)C(=O)CCC(=O)N[C@@H](C)C(=O)N[C@H](CNC(=O)COCCOCCNC(=O)COCCOCCNC(=O)CC[C@H](NC(=O)CC[C@H](NC(=O)CCOCCOCC[N+](C)(C)CCNC(=O)CCCCCCCCCCCCCCC(=O)O)C(=O)O)C(=O)O)C(=O)N[C@@H](Cc2cccc(c2)CNC(=O)CO4)C(=O)N3)cc1', 'PCSK9 (Homo sapiens, UniProt Q8NBP7)', '> 11.22'),
  ('COc1ccc(C[C@@H]2NC(=O)[C@H]([C@@H](C)O)NC(=O)[C@@H]3[C@@H]4CCN3C(=O)[C@@H]3Cc5cn(c6ccc(F)cc56)CCCCCCN(Cc5ccc(cc5)CCNC(=O)[C@]5(C)CCCN5C2=O)C(=O)CCC(=O)N[C@@H](C)C(=O)N[C@H](CNC(=O)COCCOCCNC(=O)COCCOCCNC(=O)CC[C@H](NC(=O)CC[C@H](NC(=O)CCCCCCCCCCCCCCC(=O)O)C(=O)O)C(=O)O)C(=O)N[C@@H](Cc2cccc(c2)CNC(=O)CO4)C(=O)N3)cc1', 'PCSK9 (Homo sapiens, UniProt Q8NBP7)', '> 11.22');

This collection of values is drawn from patent US12178842B2.
